B1: Hairpin Ribozyme (parent)
chain: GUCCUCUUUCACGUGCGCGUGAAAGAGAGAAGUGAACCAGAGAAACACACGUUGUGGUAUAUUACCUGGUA

Variants of: B1
Test: self-cleavage, relative activity (ratio to wild type); higher = more cleavage; co-transcriptional
PARAMETER MEASURED: self-cleavage

| VARIANT DESCRIPTION | VALUE |
| --- | --- |
| G13C G69C | 0.199 |
| U8G A26C | 0.25 |
| A45G U52A | 0.0852 |
| U14G A44U | 0.138 |
| C66U G69C | 0.198 |
| C4A C37U | 0.16 |
| A64C G68U | 0.26 |
| U8C A23C | 0.68 |
| U52A U55C | 0.438 |
| C16U A26U | 0.817 |
| A23U C48G | 0.226 |
| C50U U58G | 0.262 |
| A44U G57A | 0.0753 |

The values you see were collected from the RNAGym collection of RNA variant scans (doi:10.7554/elife.80360).
